System: human neutrophils
Experiment: ROS production by PMA-stimulated purified human neutrophils
Assay type: cell-based
Conditions: Neutrophil; human neutrophils, PMA stimulated; average of several experiments; read-out: ROS Inhibition IC50
Assignment: determine reported IC50 for the given compounds.
Give a bare numeral; the unit nM is implied.

# query: IC50 of entry CN1CCN(CCCN2c3ccccc3Sc3ccc(C(F)(F)F)cc32)CC1
1000

# query: IC50 of entry CN(C)C/C=C/C(=O)Nc1cc2c(Nc3ccc(F)c(Cl)c3)ncnc2cc1O[C@H]1CCOC1
4000

# query: IC50 of entry CCN1CCN(Cc2ccc(Nc3ncc(F)c(-c4cc(F)c5nc(C)n(C(C)C)c5c4)n3)nc2)CC1
1000

# query: IC50 of entry COc1cc(Nc2c(C#N)cnc3cc(OCCCN4CCN(C)CC4)c(OC)cc23)c(Cl)cc1Cl
200

# query: IC50 of entry CCCCOc1ccc(C(=O)CCN2CCCCC2)cc1
2500
